// reported logD per item
- Method Description: Apparent partition coefficient, log P in octanol and 0.1 M phosphate buffer at pH 7.4
- Assay type: physicochemical
- Assay Conditions: octanol/0.1 M phosphate buffer
Lab note: write the figure by itself, no unit.

Compound	Quantity Kind	Quantitative Result
Brc1cc(Br)c(N=C2NCCN2)c(Br)c1.Cl	logD	2.24
Cc1cccc(Cl)c1N=C1NCCN1.Cl	logD	-0.57
Cc1cc(Br)cc(C)c1N=C1NCCN1.Cl	logD	-0.28
Cl.c1ccc(NC2=NCCN2)cc1	logD	-1.92
Cl.Clc1cccc(N=C2NCCN2)c1Cl	logD	0.57

Field request: logD | item: "Cc1cc(Cl)c(N=C2NCCN2)c(Cl)c1.Cl"
0.73

Quick one: "COc1cc(Cl)c(N=C2NCCN2)c(Cl)c1.Cl"
0.15

Quick one: "Cl.Fc1cccc(F)c1N=C1NCCN1"
-0.16

Data origin, for the record: ChEMBL document CHEMBL3272166
